Molecular target: T1, rat MASP-2cf CCP1-CCP2-SP (rat, UniProt Q9JJS8 298-685)
T1 construct: range 298-685; Mw 42309 Da; also called rat MASP-2 catalytic fragment
T1 sequence (Q9JJS8 other isoform, or with tags, fused parts or gaps limits assumed, form in doubt): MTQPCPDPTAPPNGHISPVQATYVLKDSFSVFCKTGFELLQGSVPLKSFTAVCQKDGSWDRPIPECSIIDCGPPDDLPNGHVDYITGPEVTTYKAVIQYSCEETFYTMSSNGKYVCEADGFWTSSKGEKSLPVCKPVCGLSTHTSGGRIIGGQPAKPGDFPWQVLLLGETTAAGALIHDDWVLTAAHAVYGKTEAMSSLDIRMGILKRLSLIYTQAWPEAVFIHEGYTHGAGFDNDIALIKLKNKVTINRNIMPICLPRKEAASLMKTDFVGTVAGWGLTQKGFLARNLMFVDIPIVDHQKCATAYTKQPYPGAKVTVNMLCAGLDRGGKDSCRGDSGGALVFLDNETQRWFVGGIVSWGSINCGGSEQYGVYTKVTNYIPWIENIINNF
Test: SPR, target immobilised
Where no end group is shown, it is not given here.
Label rule met when Relative affinity >= 5 fold vs EVO2; otherwise rule not met.

Answered examples (2):
[[record]]
binder = "EVO21 (designed binder, not fully specified; ends and bridges not checked, Modified TFPI-D2 Kunitz domain; made as m1) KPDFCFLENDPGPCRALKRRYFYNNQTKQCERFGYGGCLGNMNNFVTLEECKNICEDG"
label_class = "rule met"

[[record]]
binder = "EVO22b (designed binder, not fully specified; cysteine pairing not given here, Modified TFPI-D2 Kunitz domain; made as m1) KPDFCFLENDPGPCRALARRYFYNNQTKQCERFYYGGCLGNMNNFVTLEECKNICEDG"
label_class = "rule met"


IN: Given EVO22 (designed binder, not fully specified; cysteine pairing not given here, Modified TFPI-D2 Kunitz domain; made as m1) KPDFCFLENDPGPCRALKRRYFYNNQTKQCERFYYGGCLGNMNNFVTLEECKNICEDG , state whether its Relative affinity is at least 5 fold vs EVO2.
OUT: rule met

IN: Given EVO2d (designed binder, not fully specified; cysteine pairing not given here, Modified TFPI-D2 Kunitz domain; made as m1) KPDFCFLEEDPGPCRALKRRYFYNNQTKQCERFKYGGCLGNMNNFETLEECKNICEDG , state whether its Relative affinity is at least 5 fold vs EVO2.
OUT: rule not met

IN: Given EVO23 (designed binder, not fully specified; cysteine pairing not given here, Modified TFPI-D2 Kunitz domain; made as m1) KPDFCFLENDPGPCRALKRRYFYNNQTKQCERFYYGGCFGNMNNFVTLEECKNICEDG , state whether its Relative affinity is at least 5 fold vs EVO2.
OUT: rule met

IN: Given EVO223 (designed binder, Modified TFPI-D2 Kunitz domain; made as m1) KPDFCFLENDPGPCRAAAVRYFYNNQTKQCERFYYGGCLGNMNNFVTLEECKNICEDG , state whether its Relative affinity is at least 5 fold vs EVO2.
OUT: rule met

IN: Given EVO21a (designed binder, not fully specified; cysteine pairing not given here, Modified TFPI-D2 Kunitz domain; made as m1) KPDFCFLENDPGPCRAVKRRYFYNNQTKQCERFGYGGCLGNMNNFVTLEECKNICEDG , state whether its Relative affinity is at least 5 fold vs EVO2.
OUT: rule not met

IN: Given EVO2a (designed binder, not fully specified; cysteine pairing not given here, Modified TFPI-D2 Kunitz domain; made as m1) KPDFCFLENDPGPCRAVKRRYFYNNQTKQCERFKYGGCLGNMNNFETLEECKNICEDG , state whether its Relative affinity is at least 5 fold vs EVO2.
OUT: rule not met
